Where these numbers come from: patent US8242282B2

# assayed target: histone deacetylase (HDAC)
# assay remarks: HDAC inhibition assay (Fluor de Lys fluorescent assay, HeLa lysate)
# protocol conditions: mantissa in r5, exponent and unit in r6
measured parameter: IC50
Hey, just the number and the unit after it is fine.

Example entries and their recorded answers appear below.
{"compound": "CC(C)(C)OC(=O)NC(Cc1ccc(OCc2ccccc2)cn1)C(=O)NCc1ccc(C(=O)NO)cc1 (stereo not drawn)", "result value": "1320 nM"}
{"compound": "CC(C)(C)OC(=O)NC(Cc1ccc(O)cn1)C(=O)Nc1ccc(CCCC(=O)NO)cc1 (stereo not drawn)", "result value": "4130 nM"}

Consider the additional compound presented here.
Incoming: Given CC(C)(C)OC(=O)N[C@H](Cc1ccc(OCc2ccccc2)cn1)C(=O)Nc1ccc(CCCC(=O)NO)cc1 , respond with its IC50.
Outgoing: 398 nM

* * *

I'd be grateful if you could share measured melting point for these entries.

Example entries and their recorded answers appear below.
{"molecule": "CC(C)(C)OC(=O)NC(Cc1ccc(O)cn1)C(=O)Nc1ccc(CCCC(=O)NO)cc1 (centres unmarked) [Compound 4]", "melting point": "166 to 167 °C"}
{"molecule": "NC(Cc1ccc(O)cn1)C(=O)Nc1ccc(CCCC(=O)NO)cc1 (centres unmarked) [Compound 6]", "melting point": "230 °C (dec.)"}
{"molecule": "NC(Cc1ccc(OCc2ccccc2)cn1)C(=O)Nc1ccc(CCCC(=O)NO)cc1 (centres unmarked) [Compound 5]", "melting point": "> 300 °C"}
{"molecule": "CC(C)(C)OC(=O)NC(Cc1ccc(OCc2ccccc2)cn1)C(=O)NCc1ccc(C(=O)NO)cc1 (centres unmarked) [Compound 7]", "melting point": "106 to 108 °C"}

Incoming: Given CC(C)(C(=O)NO)C(O)Cc1ccccc1 (centres unmarked) [Compound 2] , respond with its melting point.
Outgoing: 95 to 96 °C
